The origin of these recorded values is paper PMC10353446.

Assay: Alveolar macrophage (AM) pharmacokinetics of SPR206 from BAL cell pellet
Assay type: in vivo, human
Settings: both sexes, human, in vivo, iv, 100 mg
Where a SMILES comes first, the peptide text is derived from it. Bridges are numbered along the chain shown (N, C = ends). [ ]: non-standard residue; d: D form. The star is where a group is joined. X1 = NC[C@@H](CC(=O)*)c1cccc(Cl)c1; Dab = NCC[C@H](N)C(=O)O; Dap = NC[C@H](N)C(=O)O

{"Compound": "CC(C)C[C@@H]1NC(=O)[C@@H](Cc2ccccc2)NC(=O)[C@H](CCN)NC(=O)[C@@H](NC(=O)[C@H](CN)NC(=O)[C@@H](NC(=O)C[C@H](CN)c2cccc(Cl)c2)[C@@H](C)O)CCNC(=O)[C@H]([C@@H](C)O)NC(=O)[C@H](CCN)NC(=O)[C@H](CCN)NC1=O [SPR206] (X1-T[Dap][Dab][Dab][dF]L[Dab][Dab]T; lactam 3-C (inferred))", "AUC(0-t) (ng·h/mL)": 6030}

----------
Experiment: clinical
Details: both sexes, human, in vivo, iv, 100 mg
Where a SMILES comes first, the peptide text is derived from it. Bridges are numbered along the chain shown (N, C = ends). [ ]: non-standard residue; d: D form. The star is where a group is joined. X1 = NC[C@@H](CC(=O)*)c1cccc(Cl)c1; Dab = NCC[C@H](N)C(=O)O; Dap = NC[C@H](N)C(=O)O

{"Compound": "CC(C)C[C@@H]1NC(=O)[C@@H](Cc2ccccc2)NC(=O)[C@H](CCN)NC(=O)[C@@H](NC(=O)[C@H](CN)NC(=O)[C@@H](NC(=O)C[C@H](CN)c2cccc(Cl)c2)[C@@H](C)O)CCNC(=O)[C@H]([C@@H](C)O)NC(=O)[C@H](CCN)NC(=O)[C@H](CCN)NC1=O [SPR206] (X1-T[Dap][Dab][Dab][dF]L[Dab][Dab]T; lactam 3-C (inferred))", "half-life / h": 3.6}

----------
Assay: clinical
Conditions: both sexes, human, in vivo, iv, 100 mg, Cmax, geometric mean (CV%)
Where a SMILES comes first, the peptide text is derived from it. Bridges are numbered along the chain shown (N, C = ends). [ ]: non-standard residue; d: D form. The star is where a group is joined. X1 = NC[C@@H](CC(=O)*)c1cccc(Cl)c1; Dab = NCC[C@H](N)C(=O)O; Dap = NC[C@H](N)C(=O)O

{"Molecule": "CC(C)C[C@@H]1NC(=O)[C@@H](Cc2ccccc2)NC(=O)[C@H](CCN)NC(=O)[C@@H](NC(=O)[C@H](CN)NC(=O)[C@@H](NC(=O)C[C@H](CN)c2cccc(Cl)c2)[C@@H](C)O)CCNC(=O)[C@H]([C@@H](C)O)NC(=O)[C@H](CCN)NC(=O)[C@H](CCN)NC1=O [SPR206] (X1-T[Dap][Dab][Dab][dF]L[Dab][Dab]T; lactam 3-C (inferred))", "Units symbol": "ng/mL", "Cmax": 4300}

----------
Assay: clinical
Settings: both sexes, human, in vivo, iv, 100 mg
Where a SMILES comes first, the peptide text is derived from it. Bridges are numbered along the chain shown (N, C = ends). [ ]: non-standard residue; d: D form. The star is where a group is joined. X1 = NC[C@@H](CC(=O)*)c1cccc(Cl)c1; Dab = NCC[C@H](N)C(=O)O; Dap = NC[C@H](N)C(=O)O
Measured quantity: Vd (L)

{"Molecule": "CC(C)C[C@@H]1NC(=O)[C@@H](Cc2ccccc2)NC(=O)[C@H](CCN)NC(=O)[C@@H](NC(=O)[C@H](CN)NC(=O)[C@@H](NC(=O)C[C@H](CN)c2cccc(Cl)c2)[C@@H](C)O)CCNC(=O)[C@H]([C@@H](C)O)NC(=O)[C@H](CCN)NC(=O)[C@H](CCN)NC1=O [SPR206] (X1-T[Dap][Dab][Dab][dF]L[Dab][Dab]T; lactam 3-C (inferred))", "Measured quantity": "Vd", "Units symbol": "L", "Experimental result": 19.8}
